This collection of values is drawn from ChEMBL document CHEMBL4014283.

Target: Histone deacetylase 8 (Schistosoma mansoni) (UniProt A5H660)
Sequence (whole entry): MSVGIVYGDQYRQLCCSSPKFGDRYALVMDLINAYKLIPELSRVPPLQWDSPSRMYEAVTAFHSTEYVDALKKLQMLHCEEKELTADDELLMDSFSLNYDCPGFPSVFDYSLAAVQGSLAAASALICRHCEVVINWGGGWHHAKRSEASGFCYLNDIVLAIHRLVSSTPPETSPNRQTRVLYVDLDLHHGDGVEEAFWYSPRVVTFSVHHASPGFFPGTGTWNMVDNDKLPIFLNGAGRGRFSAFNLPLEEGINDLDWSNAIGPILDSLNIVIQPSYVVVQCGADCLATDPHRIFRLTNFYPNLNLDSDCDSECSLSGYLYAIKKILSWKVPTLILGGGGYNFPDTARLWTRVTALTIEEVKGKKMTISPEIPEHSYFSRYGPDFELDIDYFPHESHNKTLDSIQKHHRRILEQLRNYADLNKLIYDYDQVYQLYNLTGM
Test: Inhibition of Schistosoma mansoni KDAC8 at 30 uM using (FAM)-labeled peptide as substrate after 60 mins by microfluidic assay
Calls of active or inactive are those of the source. The rule behind the calls is not given here.
MEASURED PARAMETER: inhibition

Reference set, count: 8
CC(C)[C@@H]1NC(=O)[C@@H]2CCCN2C(=O)[C@H]2CCCN2C(=O)C[C@@H](C(=O)NCCCO)NC1=O = 0%
CC1(C)[C@H]2CC[C@H](CNC(=N)CSS(=O)(=O)O)[C@@H]1C2 = inactive
COC(=O)CCCNC(=O)[C@H]1CC(=O)N2CCC[C@@H]2C(=O)N2CCC[C@H]2C(=O)N[C@@H](C(C)C)C(=O)N1 = 0%
O=C(O)CC[C@@H]1N=C(c2ccccc2)c2ccccc2N(CCCCC(=O)NO)C1=O = 13.4%
CC(C)[C@@H]1NC(=O)[C@@H]2CCCN2C(=O)[C@H]2CCCN2C(=O)C[C@@H](C(=O)NCCSSCCNP(=O)(Oc2ccccc2)Oc2ccccc2)NC1=O = 0%
CC1=NN(c2ccccc2)C(=O)C1/N=N/c1ccc(S(N)(=O)=O)cc1 (centres undefined) = inactive
COC(=O)CCCCN1C(=O)[C@H](CC(=O)NC(c2ccccc2)(c2ccccc2)c2ccccc2)N=C(c2ccccc2)c2ccccc21 = 2.19%
CC(OCc1ccccc1)[C@@H]1N=C(c2ccccc2)c2ccccc2NC1=O (single isomer, unassigned) = 0%

For each of the items listed, what is its inhibition?
1. N=C(N)NCCC[C@@H]1N=C(c2ccccc2)c2ccccc2N(CCCCC(=O)NO)C1=O
2. O=C(C[C@@H]1N=C(c2ccccc2)c2ccccc2NC1=O)NO
3. CC(C)[C@@H]1NC(=O)[C@@H]2CCCN2C(=O)[C@H]2CCCN2C(=O)C[C@H](C(=O)NCCSSCCNC(=O)[C@H]2CC(=O)N3CCC[C@@H]3C(=O)N3CCC[C@H]3C(=O)N[C@@H](C(C)C)C(=O)N2)NC1=O
4. CC(C)[C@@H]1N=C(c2ccccc2)c2ccccc2NC1=O
5. CCOC(=O)Nc1ccc2nc(N3CCCCCC3)sc2c1
6. COc1ccc([N+](=O)[O-])cc1NS(=O)(=O)c1ccc(C)cc1

Key:
1. 23.5%
2. 0%
3. 0%
4. 0%
5. 5%
6. 13%

For each of the items listed, what is its inhibition?
1. CC(C)[C@@H]1NC(=O)[C@@H]2CCCN2C(=O)[C@H]2CCCN2C(=O)C[C@H](C(=O)NCCCS(C)(=O)=O)NC1=O
2. Cc1c(C)c(S(=O)(=O)NC(=N)NCCC[C@@H]2N=C(c3ccccc3)c3ccccc3N(CCCCC(=O)O)C2=O)c(C)c2c1OC(C)(C)C2
3. O=C(O)CCCCN1C(=O)CN=C(c2ccccc2)c2ccccc21
4. Cc1cc(NC(=O)Nc2cc(F)ccc2F)no1
5. CC(C)C[C@@H]1N=C(c2ccccc2)c2ccccc2N(CCCCC(=O)NO)C1=O
6. C[C@@H]1N=C(c2ccccc2)c2ccccc2N(CCCCC(=O)O)C1=O

Key:
1: 0%; 2: 0%; 3: 0%; 4: inactive; 5: 23.1%; 6: 0%

###

Molecular target: KDAC3/NCOR2 (histone deacetylase 3/nuclear receptor corepressor 2 complex) (Homo sapiens)
Sequence (O15379 whole entry, the tested form may be a part): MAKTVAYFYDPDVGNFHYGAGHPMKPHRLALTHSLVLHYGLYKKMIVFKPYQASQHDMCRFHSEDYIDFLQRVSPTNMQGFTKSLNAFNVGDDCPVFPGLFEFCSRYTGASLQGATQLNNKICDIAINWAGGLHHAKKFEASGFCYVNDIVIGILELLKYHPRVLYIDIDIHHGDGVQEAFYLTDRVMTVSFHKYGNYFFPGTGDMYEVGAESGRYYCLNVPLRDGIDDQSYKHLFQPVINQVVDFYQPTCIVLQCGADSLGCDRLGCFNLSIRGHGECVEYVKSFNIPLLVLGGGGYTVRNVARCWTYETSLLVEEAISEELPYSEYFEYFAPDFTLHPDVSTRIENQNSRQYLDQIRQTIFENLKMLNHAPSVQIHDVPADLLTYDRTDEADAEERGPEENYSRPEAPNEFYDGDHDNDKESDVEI
Sequence (Q9Y618 whole entry, further chain, the tested form may be a part): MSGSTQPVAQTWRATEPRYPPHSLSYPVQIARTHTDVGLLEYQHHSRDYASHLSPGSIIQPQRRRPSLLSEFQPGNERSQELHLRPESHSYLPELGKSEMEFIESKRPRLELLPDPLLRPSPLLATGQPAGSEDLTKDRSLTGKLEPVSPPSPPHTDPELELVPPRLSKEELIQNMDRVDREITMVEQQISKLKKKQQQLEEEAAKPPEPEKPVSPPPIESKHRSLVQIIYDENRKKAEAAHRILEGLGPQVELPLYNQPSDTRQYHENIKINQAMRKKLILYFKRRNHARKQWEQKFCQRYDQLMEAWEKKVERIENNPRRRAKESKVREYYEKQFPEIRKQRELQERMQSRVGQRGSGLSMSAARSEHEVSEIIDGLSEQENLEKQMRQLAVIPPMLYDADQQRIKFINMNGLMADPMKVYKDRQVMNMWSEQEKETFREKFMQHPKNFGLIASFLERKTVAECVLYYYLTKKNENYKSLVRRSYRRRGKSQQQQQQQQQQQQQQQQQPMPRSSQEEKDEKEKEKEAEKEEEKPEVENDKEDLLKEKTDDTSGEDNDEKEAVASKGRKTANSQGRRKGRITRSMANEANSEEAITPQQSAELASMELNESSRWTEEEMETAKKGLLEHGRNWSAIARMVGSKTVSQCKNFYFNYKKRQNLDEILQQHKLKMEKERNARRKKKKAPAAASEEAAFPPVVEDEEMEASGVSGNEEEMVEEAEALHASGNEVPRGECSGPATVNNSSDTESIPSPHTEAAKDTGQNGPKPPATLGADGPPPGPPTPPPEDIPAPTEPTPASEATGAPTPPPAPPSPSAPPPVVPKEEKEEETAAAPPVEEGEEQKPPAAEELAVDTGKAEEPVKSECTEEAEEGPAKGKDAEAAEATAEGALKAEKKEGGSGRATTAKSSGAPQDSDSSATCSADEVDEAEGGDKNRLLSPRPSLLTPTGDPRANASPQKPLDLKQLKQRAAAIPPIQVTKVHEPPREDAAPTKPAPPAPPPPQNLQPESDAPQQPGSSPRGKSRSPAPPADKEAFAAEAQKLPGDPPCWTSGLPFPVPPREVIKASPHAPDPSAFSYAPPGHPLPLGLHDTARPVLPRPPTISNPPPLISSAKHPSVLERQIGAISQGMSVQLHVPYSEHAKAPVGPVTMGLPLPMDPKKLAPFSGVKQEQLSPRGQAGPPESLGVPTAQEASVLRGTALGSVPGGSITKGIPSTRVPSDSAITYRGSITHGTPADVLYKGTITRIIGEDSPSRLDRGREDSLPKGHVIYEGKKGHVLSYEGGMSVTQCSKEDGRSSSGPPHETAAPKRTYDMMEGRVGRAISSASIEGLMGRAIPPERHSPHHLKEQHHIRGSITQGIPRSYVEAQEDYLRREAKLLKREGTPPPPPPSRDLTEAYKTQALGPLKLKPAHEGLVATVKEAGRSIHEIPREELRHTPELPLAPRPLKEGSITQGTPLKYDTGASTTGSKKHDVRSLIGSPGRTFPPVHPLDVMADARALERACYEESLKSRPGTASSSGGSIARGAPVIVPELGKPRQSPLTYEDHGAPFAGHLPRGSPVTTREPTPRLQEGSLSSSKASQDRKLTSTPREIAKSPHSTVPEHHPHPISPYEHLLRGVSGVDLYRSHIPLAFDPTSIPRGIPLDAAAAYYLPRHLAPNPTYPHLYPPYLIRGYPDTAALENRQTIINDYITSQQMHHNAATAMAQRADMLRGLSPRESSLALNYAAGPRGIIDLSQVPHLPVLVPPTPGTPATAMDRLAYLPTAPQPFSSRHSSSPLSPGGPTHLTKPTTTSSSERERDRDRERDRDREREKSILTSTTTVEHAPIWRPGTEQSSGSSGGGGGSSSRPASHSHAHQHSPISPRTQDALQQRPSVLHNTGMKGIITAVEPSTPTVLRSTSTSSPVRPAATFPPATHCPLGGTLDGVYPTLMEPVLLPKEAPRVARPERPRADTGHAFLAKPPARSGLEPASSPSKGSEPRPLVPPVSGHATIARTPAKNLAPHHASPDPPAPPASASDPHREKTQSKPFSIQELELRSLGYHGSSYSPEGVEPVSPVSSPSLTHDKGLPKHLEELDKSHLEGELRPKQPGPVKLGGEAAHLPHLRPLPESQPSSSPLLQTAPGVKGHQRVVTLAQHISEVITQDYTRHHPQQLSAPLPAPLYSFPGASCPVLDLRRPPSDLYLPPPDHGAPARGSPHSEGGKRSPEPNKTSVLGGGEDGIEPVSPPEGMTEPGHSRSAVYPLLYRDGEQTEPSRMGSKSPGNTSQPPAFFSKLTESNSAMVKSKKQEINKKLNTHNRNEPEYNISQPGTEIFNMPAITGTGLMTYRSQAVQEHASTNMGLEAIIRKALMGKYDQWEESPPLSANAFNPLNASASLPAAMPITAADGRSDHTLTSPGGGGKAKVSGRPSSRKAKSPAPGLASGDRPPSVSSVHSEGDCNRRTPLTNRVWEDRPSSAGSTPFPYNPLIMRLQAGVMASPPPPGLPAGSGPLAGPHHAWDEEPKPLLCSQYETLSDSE
Test: Inhibition of full length human C-terminal His-tagged KDAC3/N-terminal GST-tagged human NCOR2 (395 to 489 residues) expressed in baculovirus expression system at 30 uM using FITC-p53 acetylated peptide as substrate after 60 mins by microfluidic assay
Settings: probe FITC-p53 acetylated peptide
MEASURED PARAMETER: inhibition at 1 h, 30 µM (%)
Answers are plain numbers, in %.

Reference set, count: 3
CCOC(=O)C1=C(N)N=C(N)C1=Nc1ccc(OC)cc1 = 7
CCOC(=O)C(Cc1ccc(O)cc1)Nc1nc2ccccc2o1 (stereo unspecified) = 7
O=C(NCc1ccco1)Nc1cccc([N+](=O)[O-])c1 = 7

For each of the items listed, what is its inhibition at 1 h, 30 µM?
1. C=CCN=C(S)Nc1cccc([N+](=O)[O-])c1
2. Cc1c(COC(=O)N(C)C)c(COC(=O)NC(C)C)c2n1CS(=O)(=O)C2
3. COC(=O)C(=Cc1ccccc1[N+](=O)[O-])C(=O)OC

Key:
1. 3
2. 3
3. 3

###

Target: Histone deacetylase 8 (Schistosoma mansoni) (UniProt A5H660)
Assay: Inhibition of Schistosoma mansoni KDAC8 at 30 uM using (FAM)-labeled peptide as substrate after 60 mins by microfluidic assay
Active and inactive are the calls of the source. The calls are words filed in the database; no cut-off is given here.
MEASURED PARAMETER: inhibition

Reference set, count: 8
O=C(O)CCCCN1C(=O)[C@H](Cc2cncn2C(c2ccccc2)(c2ccccc2)c2ccccc2)N=C(c2ccccc2)c2ccccc21 = 0%
CC(C)[C@@H]1NC(=O)[C@H]2CCCN2C(=O)[C@@H]2CCCN2C(=O)C[C@H](C(=O)NCCC[S+](C)[O-])NC1=O (stereo partly specified) = 0%
CC(C)(C)OC(=O)C[C@@H]1N=C(c2ccccc2)c2ccccc2N(CCCCC(=O)NO)C1=O = 38.8%
CC(C)[C@@H]1NC(=O)[C@H]2CCCN2C(=O)[C@@H]2CCCN2C(=O)C[C@H](C(=O)NCCCC(=O)O)NC1=O = 0%
CC(C)[C@@H]1NC(=O)[C@@H]2CCCN2C(=O)[C@H]2CCCN2C(=O)C[C@@H](C(=O)OCc2ccccc2)NC1=O = 0%
CC(C)[C@@H]1NC(=O)[C@H]2CCCN2C(=O)[C@@H]2CCCN2C(=O)C[C@@H](C(=O)NCCCO)NC1=O = 0%
Nc1ccccc1SC1CC(=O)N(c2ccccc2Cl)C1=O (stereo unspecified) = 1%
CC(C)(C)OC(=O)C[C@@H]1N=C(c2ccccc2)c2ccccc2NC1=O = 0%

For each of the items listed, what is its inhibition?
1. CC(C)[C@@H]1NC(=O)[C@@H]2CCCN2C(=O)[C@H]2CCCN2C(=O)C[C@@H](C(=O)NCCCN)NC1=O
2. O=C(CCCCN1C(=O)[C@H](CCC(=O)NC(c2ccccc2)(c2ccccc2)c2ccccc2)N=C(c2ccccc2)c2ccccc21)NO
3. CC(=O)SCC/C=C/[C@@H]1CC(=O)NCc2ccc(cc2)C2=N[C@@](C)(CS2)C(=O)N[C@@H](C(C)C)C(=O)O1
4. Cc1cc(OCCCCOc2ccc(C#N)cc2)ccc1[N+](=O)[O-]

Key:
0%
32.1%
inactive
inactive

For each of the items listed, what is its inhibition?
1. CC(C)[C@@H]1NC(=O)[C@H]2CCCN2C(=O)[C@@H]2CCCN2C(=O)C[C@H](C(=O)NCCCS(C)(=O)=O)NC1=O
2. COC(=O)CCCCN1C(=O)[C@@H](CSC(C)(C)C)N=C(c2ccccc2)c2ccccc21
3. O=C1CN=C(c2ccccc2)c2ccccc2N1

Key:
1: 0%; 2: 0%; 3: 9.5%

###

Molecular target: Histone deacetylase 8 (Schistosoma mansoni) (UniProt A5H660)
Assay: Inhibition of Schistosoma mansoni KDAC8 at 30 uM using (FAM)-labeled peptide as substrate after 60 mins by microfluidic assay
Activity calls are given as the source filed them. The calls are words filed in the database; no cut-off is given here.
MEASURED PARAMETER: inhibition

Reference set, count: 10
CC(C)[C@@H]1NC(=O)[C@H]2CCCN2C(=O)[C@@H]2CCCN2C(=O)C[C@H](C(=O)NCCCO)NC1=O = 0%
CC(C)[C@@H]1NC(=O)[C@@H]2CCCN2C(=O)[C@H]2CCCN2C(=O)C[C@H](C(=O)O)NC1=O = 0%
O=C(OCC(O)COC(=O)c1cccnc1)c1cccnc1 = inactive
S=C(SCc1cc(Cl)cc2c1OCOC2)N1CCSCC1 = inactive
COC(=O)CCCCN1C(=O)[C@H]([C@@H](C)OCc2ccccc2)N=C(c2ccccc2)c2ccccc21 = 0%
CC(C)(C)OC[C@@H]1N=C(c2ccccc2)c2ccccc2NC1=O = 0%
CC(C)(C)OC(=O)C[C@H]1N=C(c2ccccc2)c2ccccc2NC1=O = 0%
CC(C)[C@@H]1NC(=O)[C@@H]2CCCN2C(=O)[C@H]2CCCN2C(=O)C[C@H](C(=O)NCCCSSCCCNC(=O)[C@H]2CC(=O)N3CCC[C@@H]3C(=O)N3CCC[C@H]3C(=O)N[C@@H](C(C)C)C(=O)N2)NC1=O = 0%
O=C(O)CCCCN1C(=O)[C@H](Cc2ccccc2)N=C(c2ccccc2)c2ccccc21 = 0%
Nc1cc(Cl)c(Cl)cc1S(=O)(=O)NO = 8.43%

For each of the items listed, what is its inhibition?
1. C[C@H](OCc1ccccc1)[C@@H]1N=C(c2ccccc2)c2ccccc2N(CCCCC(=O)O)C1=O
2. CCC(C)[C@@H]1N=C(c2ccccc2)c2ccccc2N(CCCCC(=O)NO)C1=O (single isomer, unassigned)
3. CC(C)[C@@H]1NC(=O)[C@@H]2CCCN2C(=O)[C@H]2CCCN2C(=O)C[C@H](C(=O)NCCSSCCNP(=O)(Oc2ccccc2)Oc2ccccc2)NC1=O
4. O=C(O)C[C@@H]1N=C(c2ccccc2)c2ccccc2N(CCCCC(=O)NO)C1=O

Key:
["0%", "11.7%", "3%", "12.4%"]

Exercise: Given the molecule "CC(C)[C@@H]1NC(=O)[C@H]2CCCN2C(=O)[C@@H]2CCCN2C(=O)C[C@@H](C(=O)NCCCS)NC1=O" , what is its reported inhibition?
Key: 1.45%
